System: SF-268 CNS
measurement_notes: NCI-60 one-dose screen, 48 h (100 = growth as untreated, 0 = no growth, -100 = all killed)
experimental_parameters: 10 µM unless noted
The panel holds about 83,000 compounds, 20% with a hit somewhere; the sample as a whole holds those more often.
Listed here are molecules together with their documented growth.
Give the value in % but do not write % after it.

| molecule | quantity_unit | observed |
| --- | --- | --- |
| Cc1ccc2c(n1)C(=O)C(Cl)=C(Nc1ccc(C(F)(F)F)cc1)C2=O | % | 97.7 |
| C/C(=C(\c1ccc(O)cc1)c1ccc(OCCN2CCCCCC2)cc1)c1ccc(Cl)cc1 | % | -62.5 |
| O=S(=O)(Oc1ccc(-c2cn3ccsc3n2)cc1)c1cccc(C(F)(F)F)c1 | % | 110 |

Task: What does the data say about its growth? Entry: COc1ccc(C2C(C#N)=C(/N=C/c3ccc(Cl)cc3)Oc3c2sc2c(C)cccc32)cc1 (centres undefined)
Output: 52.9

Task: What does the data say about its growth? Entry: `CNc1sc(S(=O)(=O)NC)nc1S(=O)(=O)c1ccc(C)cc1`
Output: 103

Task: What does the data say about its growth? Entry: `CCN(CC)c1ccc(/C=N/NC(=O)c2ccc(NS(C)(=O)=O)cc2)cc1`
Output: 32

Task: What does the data say about its growth? Entry: `CC[C@]12C=CCN3CC[C@@]4(c5ccc(OC)cc5N(C)[C@H]4[C@@](O)(C(=O)OC)[C@@H]1OC(=O)CCN1CCc4ccccc4C1)[C@@H]32`
Output: 85.2

Task: What does the data say about its growth? Entry: CCS(=O)(=O)Nc1ccc(C(=O)CC2(O)C(=O)Nc3ccccc32)cc1 (centres undefined)
Output: 97.3

Task: What does the data say about its growth? Entry: `CC(=O)OCCCCN1C=C/C(=C\C(=O)n2ccc3ccccc32)c2ccccc21`
Output: 103

Task: What does the data say about its growth? Entry: `CN1CCN(c2ccc(Nc3nc(NCCCNS(=O)(=O)c4ccccc4)c4sccc4n3)cc2)CC1`
Output: 64.2

Task: What does the data say about its growth? Entry: `CNC(=O)c1cc(N2CCc3cc(NC(=O)Nc4ccc(N5CCOCC5)c(C(F)(F)F)c4)ccc32)ccn1`
Output: 47.8

Task: What does the data say about its growth? Entry: `O=C(Nc1cc(C(F)(F)F)cc(C(F)(F)F)c1)Nc1ccc2oc(=O)ccc2c1`
Output: 21.1

Task: What does the data say about its growth? Entry: `Cc1ccc2c(n1)C(=O)C(Cl)=C(Nc1cccc(C(F)(F)F)c1)C2=O`
Output: 100

Task: What does the data say about its growth? Entry: `Cn1cc(-c2cc3ncnc(Nc4ccc(CC(=O)Nc5nc(C(C)(C)C)cs5)cc4)c3s2)cn1`
Output: 56.2

Task: What does the data say about its growth? Entry: `COc1cc2cc(Oc3ccc(NC(=O)c4cc(C(F)(F)F)cc(C(F)(F)F)c4)cc3)c(C)nc2cc1OCCN1CCOCC1`
Output: 72.6
